# Human GLP-1R activity (EC50 nM); cAMP HTRF in CHO-K1/GLP-1R/CRE-luc cells values compiled below
# Tested Target: human glucagon-like peptide-1 receptor (GLP-1R) (human, UniProt P43220 24-463)
# Sequence (P43220 24-463): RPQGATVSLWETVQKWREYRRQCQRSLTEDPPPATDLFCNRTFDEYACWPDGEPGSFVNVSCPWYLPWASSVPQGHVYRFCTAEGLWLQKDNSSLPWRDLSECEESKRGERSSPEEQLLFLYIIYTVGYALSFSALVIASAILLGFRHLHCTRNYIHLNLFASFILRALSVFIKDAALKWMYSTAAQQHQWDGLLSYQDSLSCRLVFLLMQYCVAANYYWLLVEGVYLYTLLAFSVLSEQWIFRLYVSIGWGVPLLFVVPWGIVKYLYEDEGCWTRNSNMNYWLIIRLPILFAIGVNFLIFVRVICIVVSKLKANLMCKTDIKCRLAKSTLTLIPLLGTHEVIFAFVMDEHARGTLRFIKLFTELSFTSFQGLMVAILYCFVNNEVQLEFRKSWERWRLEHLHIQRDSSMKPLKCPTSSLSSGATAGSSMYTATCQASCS
# Measurement Notes: cell-based or functional assay
*1 amine or outer side, *2 acyl side, *3 side chain or, on linkers, in order; H or OH if unused. Where no end group is shown, it is not given here. Side-chain parts run from the residue outwards. [ ]: non-standard residue; d: D form. γGlu = O=C(O)[C@H](CCC(=O)[*:2])N[*:1]; AEEA = NCCOCCOCC(=O)O; Aib = CC(C)(N)C(=O)O
Note: unit nM is implicit; provide only the numeric part.

{"Binder": "Y[Aib]EGTFTSDYSIYK([AEEA-AEEA-γGlu-C20‑OH])ERIAAQEFINWLIAGGPSSGAPPPS-NH2 [compound 15#]", "Unit Symbol": "nM", "Result": 0.015}
{"Binder": "Y[Aib]EGTFTSDYSIYK([AEEA-AEEA-γGlu-C20‑OH])EKIAAQEFINWLLAGGPSSGAPPPS-NH2 [compound 16#]", "Unit Symbol": "nM", "Result": 0.029}
{"Binder": "Y[Aib]EGTFTSDYSIYK([AEEA-AEEA-γGlu-C20‑OH])ERIAAQEFVNWLLAGGPSSGAPPPS-NH2 [compound 17#]", "Unit Symbol": "nM", "Result": 0.022}

Please turn your attention to the following entry.
Record Y[Aib]EGTFTSDYSIYK([AEEA-AEEA-γGlu-C20‑OH])EKIAAQEFVNWLIAGGPSSGAPPPS-NH2 [compound 12#] . Reported Human GLP-1R activity (EC50 nM); cAMP HTRF in CHO-K1/GLP-1R/CRE-luc cells: 0.03

Ref: patent US20230190879A1
